Data origin, for the record: PubChem BioAssay (NCI)

System: RPMI-8226 leukemia
Assay: NCI-60 one-dose screen, 48 h
Conditions: 10 µM unless noted
Protocol: Growth inhibition of the RPMI-8226 human tumor cell line is measured as a screen for anti-cancer activity. Cells are grown in 96 well plates and exposed to the test compound for 48 hours. Compounds are tested at a single concentration, which is 10^-5 M for most compounds. The reported endpoint is percent growth (GI% or GIPRCNT), where numbers from 0 - 100% represent growth inhibition, and numbers from -100% - 0 represent cell death. For example, a value of 40 represents 60% growth inhibition. […]
About 83,000 compounds went through this panel and 20% of them were active in at least one assay; those are over-represented in the sample as a whole. Calls of active or inactive are those of the source. The calls were made as follows: active = growth percent below 10; inactive = the rest.
Outcome codes: yes = active, no = inactive

compound	measured-target	cat
S=P(SP(=S)(c1ccccc1)c1ccccc1)(c1ccccc1)c1ccccc1	RPMI-8226 leukemia	no
CC12CCC3C(CCC4CC(O)CCC43C)C1CCC2=O (stereo unspecified)	RPMI-8226 leukemia	no
CCC(=O)C(CC(C)[N+](C)(C)C)(c1ccccc1)c1ccccc1 (stereo unspecified)	RPMI-8226 leukemia	no
Cc1ccc(NC2=N[C@]34CC(=O)CC[C@]3(C)[C@H]3CC[C@]5(C)C(=O)CC[C@H]5[C@@H]3C[C@@H]4S2)c(C)c1	RPMI-8226 leukemia	yes
COc1ccc2c(c1)c(-c1nc(-c3c[nH]c4ncccc34)cs1)cn2CCCCN1CCOCC1	RPMI-8226 leukemia	yes
O=[N+]([O-])c1ccc(P(=O)(O)O)cc1	RPMI-8226 leukemia	no
CN1CCN(c2ccc(Cl)cc2)CC1	RPMI-8226 leukemia	no
Oc1ccccc1C=NCCN=Cc1ccccc1O	RPMI-8226 leukemia	no
C=CC1CN2CCC1CC2C(O)c1ccnc2ccccc12 (stereo unspecified)	RPMI-8226 leukemia	no
CO[C@H]1[C@H](O[C@@H]2C[C@@H]3C/C=C/C(=O)O[C@@H](CO)C[C@H](O)[C@@H]4C[C@H](C)[C@H](C/C=C\C=C\[C@H](C)C[C@H](C2)O3)O4)O[C@@H](C)[C@H](O)[C@H]1O	RPMI-8226 leukemia	no
C[N+]12CCC34C5=CC(=O)C(=O)C=C5[N+]5(C)C(=O)CC6OCC=C(C1)C(CC32)C6C45 (stereo unspecified)	RPMI-8226 leukemia	no
O=C1NC(=O)C(=C/C=C/c2ccccc2)C(=O)N1	RPMI-8226 leukemia	yes
O=[N+]([O-])c1cc(Cl)c(Cl)c([N+](=O)[O-])c1Cl	RPMI-8226 leukemia	no
COc1ccn(C)c(=O)c1C#N	RPMI-8226 leukemia	no
CCCN1C(=O)NC(=O)C(CC)(N2C(=O)c3c(F)c(F)c(F)c(F)c3C2=O)C1=O (stereo unspecified)	RPMI-8226 leukemia	yes
CC1(C)C2CCC1(CS(=O)(=O)O)C(=O)C2 (stereo unspecified)	RPMI-8226 leukemia	no
O=C(O)CNCP(=O)(O)O	RPMI-8226 leukemia	no
C[C@]12CC[C@H]3[C@@H](CC=C4c5nc(-c6ccc(Br)cc6)sc5CC[C@@]43C)[C@@H]1CC[C@@H]2O	RPMI-8226 leukemia	no
OCCNC1CCCCC1	RPMI-8226 leukemia	no
O=[N+]([O-])c1ccc(OCc2ccc(S(=O)(=O)F)c(Cl)c2)c(Cl)c1	RPMI-8226 leukemia	no
COC(=O)[C@@H](C)C[C@H](Cc1ccccc1)NC(=O)c1cccc([C@@H](C[C@H](C(C)C)N(C)C(=O)[C@@H](NC(=O)[C@H]2CCCCN2C)C2CC2)OC(C)=O)n1	RPMI-8226 leukemia	no
